tested on: VDR homodimer (NR concentration 270 nM); assay: PBM binding z-score (relative to random genomic background probes); higher = stronger binding; sequences stand for … in GC…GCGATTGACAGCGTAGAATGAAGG
PBM binding z-score reference
Format: numeric value only, no unit, no commentary.

The following sequences have reported results that may help.
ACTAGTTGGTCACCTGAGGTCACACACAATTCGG : 5.13
CGAACTAAGTCATTGACAGGACAGTGAATAGTAA : -0.385
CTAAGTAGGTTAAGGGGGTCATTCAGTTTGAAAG : 6.08
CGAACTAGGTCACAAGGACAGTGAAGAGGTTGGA : 0.816
CTATGTAGGTTAAGGGGGTCACTCAGTTTGAAAG : 5.29

Query sequence follows.
Noted for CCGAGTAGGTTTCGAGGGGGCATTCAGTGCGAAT : its PBM binding z-score reads 3.52
